System: OV231-CP30 cells
Assay: MTT cell viability assay
Type: cell-based, human
Settings: read-out: 48-hour EC50; OV231-CP30, 48 hours, Supplementary Fig. S2E
Value kind: EC50 (µM)
Numbers only, in µM.

Challenge: Find the recorded EC50 belonging to OC1CCC(Oc2cccc3cnc(Nc4ccc5nc[nH]c5c4)nc23)CC1 (stereo not shown) and report it.
Response given: 3.64

###

Tested on: OV81-CP40 cells
Assay: MTT cell viability assay
Assay type: cell-based, human
Conditions: read-out: 48-hour EC50; OV81-CP40, 48 hours, Supplementary Fig. S2E
Value kind: pEC50
Give bare numbers, as −log10 of the molar value.

Challenge: What does the record list as pEC50 for OC1CCC(Oc2cccc3cnc(Nc4ccc5nc[nH]c5c4)nc23)CC1 (stereo not shown) [NCB-0970] ?
Response given: 5.00

###

Tested on: OV81-CP40 cells
Test: CellTiter-Glo cell viability assay
Format: cell-based, human
Conditions: OV81-CP40 transfected with siCDK9 9, 48 hours, Fig. 5C
Value kind: EC50 (nM)
Numbers only, in nM.

Challenge: // lookup EC50 for OC1CCC(Oc2cccc3cnc(Nc4ccc5nc[nH]c5c4)nc23)CC1 (stereo not shown)
Response given: 161

###

Test system: OV81-CP40 cells
Assay: CellTiter-Glo cell viability assay
Type: cell-based, human
Settings: OV81-CP40 transfected with siControl, 48 hours, Fig. 5C
Value kind: pEC50
Give bare numbers, as −log10 of the molar value.

Challenge: I would be grateful if you could share the reported pEC50 for OC1CCC(Oc2cccc3cnc(Nc4ccc5nc[nH]c5c4)nc23)CC1 (stereo not shown) .
Response given: 6.40

###

Test system: P10_rPlfl patient-derived organoid
Experiment: Organoid drug-response profiling
Type: cell-based, human
Conditions: organoid P10_rPIfl, 96 hours
Value kind: IC50

Challenge: # IC50 lookup, item OC1CCC(Oc2cccc3cnc(Nc4ccc5nc[nH]c5c4)nc23)CC1 (stereo not shown)
Response given: > 10 µM
